assay: in vivo
details: female, NMRI nude (nu/nu), mouse, total radioactivity, Uptake (%ID/g) kidney
outcome-measure: tissue uptake at 25 min (%ID/g)
// return numeric value only (unit: %ID/g, not printed)

// query Fill in: tissue uptake at 25 min of CC[C@H](C)[C@H](NC(=O)[C@@H](NC(=O)[C@@H]1CCCN1C(=O)[C@H](CCCNC(=N)N)NC(=O)[C@H](CCCNC(N)=NC(=O)NCCCCNC(=O)CN1CCN(CC(=O)O)CCN(CC(=O)O)CCN(CC(=O)O)CC1)NC)C(C)(C)c1ccc(O)cc1)C(=O)N[C@@H](CC(C)C)C(=O)O [[^68Ga]56, metal not drawn] is ___
// result 47

----------
target-or-system: hNTS1R (Homo sapiens)
Construct: intact HT-29 colon carcinoma cells expressing the hNTS1R; host or cells: HT-29 human colon carcinoma cells
Sequence (P30989 whole entry): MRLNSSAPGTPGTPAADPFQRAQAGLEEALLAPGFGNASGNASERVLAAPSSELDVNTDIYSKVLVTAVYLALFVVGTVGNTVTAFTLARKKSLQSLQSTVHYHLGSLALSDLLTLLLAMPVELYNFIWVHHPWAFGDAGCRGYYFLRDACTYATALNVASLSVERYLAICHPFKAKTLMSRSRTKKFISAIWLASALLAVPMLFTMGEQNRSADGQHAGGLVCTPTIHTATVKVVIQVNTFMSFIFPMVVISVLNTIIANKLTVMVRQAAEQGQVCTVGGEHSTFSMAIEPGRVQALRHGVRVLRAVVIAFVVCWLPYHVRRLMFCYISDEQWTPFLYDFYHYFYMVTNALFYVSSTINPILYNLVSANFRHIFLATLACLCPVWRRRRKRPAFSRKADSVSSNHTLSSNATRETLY
assay: radioligand competition binding with [3H]UR-MK300 at intact HT-29 cells
details: [3H]UR-MK300 c = 1 nM, HT-29 cells, 23 °C; read-out: Ki [nM] NTS1R (converted)
outcome-measure: Ki

CN[C@@H](CCCNC(=N)N)C(=O)N[C@@H](CCCNC(=N)N)C(=O)N1CCC[C@H]1C(=O)N[C@@H](Cc1ccc(O)cc1)C(=O)N[C@@H](CC1CC1)C(=O)N[C@@H](CC(C)C)C(=O)O :: 5 nM

// query Reported Ki for "CN[C@@H](CCCNC(=N)NC(=O)NCCOCCOCCN)C(=O)N[C@@H](CCCNC(=N)N)C(=O)N1CCC[C@H]1C(=O)N[C@@H](Cc1ccc(O)cc1)C(=O)N[C@H](C(=O)N[C@@H](CC(C)C)C(=O)O)C(C)(C)C" : what is it?
// result 2.7 nM

// query Report Ki for "CN[C@@H](CCCNC(=N)NC(=O)NCCOCCOCCNC(=O)CN1CCN(CC(=O)O)CCN(CC(=O)O)CCN(CC(=O)O)CC1)C(=O)N[C@@H](CCCNC(=N)N)C(=O)N1CCC[C@H]1C(=O)N[C@@H](Cc1ccc(O)cc1)C(=O)N[C@H](C(=O)N[C@@H](CC(C)C)C(=O)O)C(C)(C)C" please.
// result 36 nM

// query Ki for "CN[C@@H](CCCNC(N)=NC(=O)NCCOCCOCCNC(=O)[C@@H](Cc1ccc(-c2ccc(F)cc2)cc1)NC(=O)CCCCCNC(=O)CN1CCN(CC(=O)O)CCN(CC(=O)O)CCN(CC(=O)O)CC1)C(=O)N[C@@H](CCCNC(=N)N)C(=O)N1CCC[C@H]1C(=O)N[C@@H](Cc1ccc(O)cc1)C(=O)N[C@H](C(=O)N[C@@H](CC(C)C)C(=O)O)C(C)(C)C" ?
// result 12 nM

----------
assay: in vitro
Type: in vitro ADME
details: human, plasma, pH 7.4, % Intact Peptide in Plasma after 24 h
Rule for this label: t means remaining at 24 h, 100 µM is less than 80%; f means remaining at 24 h, 100 µM is at least 80%.

// query Does this compound meet the criterion remaining at 24 h, 100 µM < 80%? "CN[C@@H](CCCNC(=N)N)C(=O)N[C@@H](CCCNC(N)=NC(=O)NCCCCNC(=O)CN1CCN(CC(=O)O)CCN(CC(=O)O)CCN(CC(=O)O)CC1)C(=O)N1CCC[C@H]1C(=O)N[C@@H](Cc1ccc(O)cc1)C(=O)N[C@H](C(=O)N[C@@H](CC(C)C)C(=O)O)C(C)(C)C"
// result t

// query For this compound, is remaining at 24 h, 100 µM lower than 80%? "CC[C@H](C)[C@H](NC(=O)[C@H](Cc1ccc(O)cc1)NC(=O)[C@@H]1CCCN1C(=O)[C@H](CCCNC(=N)N)NC(=O)[C@H](CCCNC(=N)N)NC)C(=O)N[C@@H](CC1CC1)C(=O)O"
// result t

// query Below 80% on remaining at 24 h, 100 µM? Entry "CC(C)C[C@H](NC(=O)[C@@H](NC(=O)[C@H](Cc1ccc(O)cc1)NC(=O)[C@@H]1CCCN1C(=O)[C@H](CCCNC(=N)NC(=O)NCCCCN)N(C)C(=O)[C@@H](N)CCCNC(=N)N)C(C)(C)C)C(=O)O"
// result f

// query Given the entry "CCC(CC)(NC(=O)[C@H](Cc1ccc(O)cc1)NC(=O)[C@@H]1CCCN1C(=O)[C@H](CCCNC(=N)N)NC(=O)[C@H](CCCNC(=N)N)NC)C(=O)N[C@@H](CC(C)C)C(=O)O" , would its reported remaining at 24 h, 100 µM be below 80%?
// result f

// query Please determine if "CC[C@H](C)[C@H](NC(=O)[C@@H](NC(=O)[C@@H]1CCCN1C(=O)[C@H](CCCNC(=N)N)NC(=O)[C@H](CCCNC(=N)N)NC)C(C)(C)c1ccc(O)cc1)C(=O)N[C@@H](CC(C)C)C(=O)O" is below 80% in terms of remaining at 24 h, 100 µM.
// result f

// query Strictly below 80% in remaining at 24 h, 100 µM? "CN[C@@H](CCCNC(=N)N)C(=O)N[C@@H](CCCNC(=N)N)C(=O)N1CCC[C@H]1C(=O)N[C@@H](Cc1ccc(O)cc1)C(=O)N[C@H](C(=O)N[C@@H](CC(C)C)C(=O)O)C1CC1"
// result t

// query Say whether its remaining at 24 h, 100 µM is strictly beneath 80%. Entry: "CN[C@@H](CCCNC(=N)N)C(=O)N[C@@H](CCCNC(=N)N)C(=O)N1CCC[C@H]1C(=O)N[C@@H](Cc1ccc(O)cc1)C(=O)N[C@@H](CC1CC1)C(=O)N[C@@H](CC(C)C)C(=O)O"
// result t

----------
assay: in vivo
details: female, NMRI nude (nu/nu), mouse, total radioactivity, Uptake (%ID/g) pancreas
outcome-measure: tissue uptake at 10 min (%ID/g)
Only the number, expressed in %ID/g, is required.

// query So what's the measured tissue uptake at 10 min for this one? CC[C@H](C)[C@H](NC(=O)[C@@H](NC(=O)[C@@H]1CCCN1C(=O)[C@H](CCCNC(=N)N)NC(=O)[C@H](CCCNC(N)=NC(=O)NCCCCNC(=O)CN1CCN(CC(=O)O)CCN(CC(=O)O)CCN(CC(=O)O)CC1)NC)C(C)(C)c1ccc(O)cc1)C(=O)N[C@@H](CC(C)C)C(=O)O [[^68Ga]56, metal not drawn]
// result 1.3

----------
# Lookup of reported remaining at 48 h, 100 µM keyed by entry
assay: in vitro
Type: in vitro ADME
details: human, plasma, pH 7.4, % Intact Peptide in Plasma after 48 h

Take a look at these entries with their results.
CC[C@H](C)[C@H](NC(=O)[C@@H](NC(=O)[C@@H]1CCCN1C(=O)[C@H](CCCNC(=N)N)NC(=O)[C@H](CCCNC(N)=NC(=O)NCCCCNC(=O)CN1CCN(CC(=O)O)CCN(CC(=O)O)CCN(CC(=O)O)CC1)NC)C(C)(C)c1ccc(O)cc1)C(=O)N[C@@H](CC(C)C)C(=O)O [Compound 56] :: < 1%
CN[C@@H](CCCNC(N)=NC(=O)NCCCCNC(=O)CN1CCN(CC(=O)O)CCN(CC(=O)O)CCN(CC(=O)O)CC1)C(=O)N[C@@H](CCCNC(=N)N)C(=O)N1CCC[C@H]1C(=O)N[C@H](C(=O)N[C@H](C(=O)N[C@@H](CC(C)C)C(=O)O)C(C)(C)C)C(C)(C)c1ccc(O)cc1 [Compound 57] :: < 1%

// query What value of remaining at 48 h, 100 µM has been recorded for this entry: CN[C@@H](CCCNC(=N)N)C(=O)N[C@@H](CCCNC(N)=NC(=O)NCCCCNC(=O)CN1CCN(CC(=O)O)CCN(CC(=O)O)CCN(CC(=O)O)CC1)C(=O)N1CCC[C@H]1C(=O)N[C@@H](Cc1ccc(O)cc1)C(=O)N[C@H](C(=O)N[C@@H](CC(C)C)C(=O)O)C(C)(C)C [Compound 19]
// result 4.2%

----------
assay: in vivo
details: female, NMRI nude (nu/nu), mouse, total radioactivity, Uptake (%ID/g) blood
outcome-measure: tissue uptake at 25 min (%ID/g)
Numeric answer only, unit %ID/g assumed.

// query Looking for the measured tissue uptake at 25 min of CC[C@H](C)[C@H](NC(=O)[C@@H](NC(=O)[C@@H]1CCCN1C(=O)[C@H](CCCNC(=N)N)NC(=O)[C@H](CCCNC(N)=NC(=O)NCCCCNC(=O)CN1CCN(CC(=O)O)CCN(CC(=O)O)CCN(CC(=O)O)CC1)NC)C(C)(C)c1ccc(O)cc1)C(=O)N[C@@H](CC(C)C)C(=O)O [[^68Ga]56, metal not drawn] , can you help?
// result 2.9

----------
assay: in vivo
details: female, NMRI nude (nu/nu), mouse, total radioactivity, Uptake (%ID/g) liver
Protocol: 8–12 weeks old female NMRI nude (nu/nu) mice (body weight 22–32 g) (Charles River, Sulzfeld, Germany) were kept under specified pathogen free (SPF) conditions at 23 °C, 55% relative humidity and a 12 h light/dark cycle in the central animal facility of the University of Regensburg using type III cages from Tecniplast (Hohenpeißenberg, Germany). […] Aliquots of the tracer stock were diluted in PBS to give a volume of 200 µL. […] Mice were killed 45 min p.i. and analyzed as described above. […]
outcome-measure: tissue uptake at 10 min (%ID/g)
Only the number, expressed in %ID/g, is required.

// query Recorded tissue uptake at 10 min for CC[C@H](C)[C@H](NC(=O)[C@@H](NC(=O)[C@@H]1CCCN1C(=O)[C@H](CCCNC(=N)N)NC(=O)[C@H](CCCNC(N)=NC(=O)NCCCCNC(=O)CN1CCN(CC(=O)O)CCN(CC(=O)O)CCN(CC(=O)O)CC1)NC)C(C)(C)c1ccc(O)cc1)C(=O)N[C@@H](CC(C)C)C(=O)O [[^68Ga]56, metal not drawn] , please?
// result 7.2
